- Test system: CCRIS mutagenicity, Ames/micronucleus/aberration tests
- METHOD: CCRIS mutagenicity studies
- APPLIED_CONDITIONS: Test System: AMES SALMONELLA TYPHIMURIUM; Strain/Indicator: TA100; Metabolic Activation: RAT, LIVER, S-9, AROCLOR 1254; Method: PREINCUBATION
The source made the active and inactive calls. How the calls were made is not given here.
// classify into TRUE (active), FALSE (inactive)

Answered cases to consult:
COMPOUND: Nc1ccc(-c2ccc(N)c(Cl)c2)cc1Cl
QUALITATIVE_LABEL: TRUE
//
COMPOUND: CC(=O)[CH-]C(=O)c1ccccc1.CC(=O)[CH-]C(=O)c1ccccc1.CC[O-].CC[O-].[Ti+4]
QUALITATIVE_LABEL: FALSE
//
COMPOUND: CCC(=O)OCc1ccc([N+](=O)[O-])cc1
QUALITATIVE_LABEL: TRUE

Would you mind telling me which call this test gave C[Si](Cl)Cl ?
FALSE

Would you mind telling me which call this test gave Nc1ccc(N)cc1 ?
FALSE

Would you mind telling me which call this test gave CC1(C)S[C@@H]2[C@H](NC(=O)[C@H](N)c3ccccc3)C(=O)N2[C@H]1C(=O)O ?
FALSE

Would you mind telling me which call this test gave O=NN1CCSC1C(O)C(O)C(O)C(O)CO (configuration not stated) ?
TRUE

Would you mind telling me which call this test gave C#C[C@]1(O)CC[C@H]2[C@@H]3CCC4=CC(=O)CC[C@@H]4[C@H]3CC[C@@]21C ?
FALSE

* * *

- Tested on: CCRIS mutagenicity, Ames/micronucleus/aberration tests
- METHOD: CCRIS mutagenicity studies
- APPLIED_CONDITIONS: Test System: AMES SALMONELLA TYPHIMURIUM; Strain/Indicator: TA100; Metabolic Activation: NONE; Method: STANDARD PLATE
- Source text: The CCRIS database contains chemical records with carcinogenicity, mutagenicity, tumor promotion, and tumor inhibition test results. It was developed by the National Cancer Institute (NCI). Data are derived from studies cited in primary journals, current awareness tools, NCI reports, and other sources. Test results have been reviewed by experts in carcinogenesis and mutagenesis. CCRIS provides historical information from the years 1985 - 2011. It is no longer updated. […]
The source made the active and inactive calls. The rule behind the calls is not given here.
// classify into true (1) for active, false (0) for inactive

Answered cases to consult:
MOLECULE: C[N+](C)(C)CC(=O)O
SYSTEM: CCRIS mutagenicity, Ames/micronucleus/aberration tests
QUALITATIVE_LABEL: false (0)
//
MOLECULE: CC1CCC(C(C)C)C(OC(=O)c2ccccc2N)C1 (stereo not drawn)
SYSTEM: CCRIS mutagenicity, Ames/micronucleus/aberration tests
QUALITATIVE_LABEL: false (0)
//
MOLECULE: O=Cc1c2ccccc2cc2ccccc12
SYSTEM: CCRIS mutagenicity, Ames/micronucleus/aberration tests
QUALITATIVE_LABEL: false (0)
//
MOLECULE: Nc1cc2c3ccccc3ccc2c2ccccc12
SYSTEM: CCRIS mutagenicity, Ames/micronucleus/aberration tests
QUALITATIVE_LABEL: false (0)
//
MOLECULE: COC1=CC(=O)c2c(ncc3c2[nH]c2ccccc23)C1=O
SYSTEM: CCRIS mutagenicity, Ames/micronucleus/aberration tests
QUALITATIVE_LABEL: true (1)
//
MOLECULE: COC(=O)C1(C(N)=O)OC1(C)C(O)C(C)C (stereo not drawn)
SYSTEM: CCRIS mutagenicity, Ames/micronucleus/aberration tests
QUALITATIVE_LABEL: false (0)
//
MOLECULE: CNC(=O)NOC(=O)N(C)C(=O)NC
SYSTEM: CCRIS mutagenicity, Ames/micronucleus/aberration tests
QUALITATIVE_LABEL: false (0)
//
MOLECULE: COc1ccc(N=O)cc1
SYSTEM: CCRIS mutagenicity, Ames/micronucleus/aberration tests
QUALITATIVE_LABEL: true (1)

Would you mind telling me which call this test gave OC(O)C(Cl)(Cl)Cl ?
false (0)

Would you mind telling me which call this test gave Nc1c(Br)cc([N+](=O)[O-])cc1[N+](=O)[O-] ?
true (1)

Would you mind telling me which call this test gave c1ccc2cc3c(cc2c1)c1c(c2ccccc23)O1 ?
true (1)

Would you mind telling me which call this test gave O=c1cn[nH]c(=O)[nH]1 ?
false (0)

Would you mind telling me which call this test gave CC(=O)O[C@H]1[C@@H]2CC(C)(C)CC2=C(C=O)[C@]2(C=O)C[C@]12C ?
false (0)

* * *

- Test system: CCRIS mutagenicity, Ames/micronucleus/aberration tests
- METHOD: CCRIS mutagenicity studies
- APPLIED_CONDITIONS: End Point: In vitro chromosomal aberrations; Test System: Chinese hamster lung (CHL/IU) cells; Metabolic Activation: Rat, Liver, S9, Phenobarbital and 5,6-benzoflavone
Active and inactive are the calls of the source. How the calls were made is not given here.
// classify into yes (1) = active, no (0) = inactive

COMPOUND_STRUCTURE: COC(=O)CC(C)=O
QUALITATIVE_LABEL: yes (1)
//
COMPOUND_STRUCTURE: CCCC=O
QUALITATIVE_LABEL: yes (1)
//
COMPOUND_STRUCTURE: Nc1ccc(I)cc1Cl
QUALITATIVE_LABEL: yes (1)

Would you mind telling me which call this test gave CC(C)C#N ?
no (0)

* * *

- System: CCRIS mutagenicity, Ames/micronucleus/aberration tests
- METHOD: CCRIS mutagenicity studies
- APPLIED_CONDITIONS: Test System: AMES SALMONELLA TYPHIMURIUM; Strain/Indicator: TA1537; Metabolic Activation: NONE; Method: PREINCUBATION
The source made the active and inactive calls. No rule for the calls is given here.
// classify into yes (1) = active, no (0) = inactive

MOLECULE: CC(=O)OCC(O)CO (centres undefined)
QUALITATIVE_LABEL: no (0)
//
MOLECULE: CCOc1cc(C=O)ccc1O
QUALITATIVE_LABEL: no (0)
//
MOLECULE: Nc1nc2ccccc2[nH]1
QUALITATIVE_LABEL: no (0)
//
MOLECULE: CC(O)CO (centres undefined)
QUALITATIVE_LABEL: no (0)
//
MOLECULE: CCN(CC)CC
QUALITATIVE_LABEL: no (0)

Would you mind telling me which call this test gave CCCCC(CC)COC(=O)CCCCC(=O)O (centres undefined) ?
no (0)

Would you mind telling me which call this test gave O=[N+]([O-])c1cccc(Cl)c1Cl ?
no (0)

Would you mind telling me which call this test gave C[Si](Cl)Cl ?
no (0)

Would you mind telling me which call this test gave O=C1c2ccccc2C(=O)c2c1cc(O)c(CO)c2O ?
yes (1)

* * *

- Test system: CCRIS mutagenicity, Ames/micronucleus/aberration tests
- METHOD: CCRIS mutagenicity studies
- APPLIED_CONDITIONS: Test System: E. COLI; Strain/Indicator: WP2 UVRA; Metabolic Activation: MOUSE, LIVER, S-9, AROCLOR 1254; Method: STANDARD PLATE
Calls of active or inactive are those of the source. No rule for the calls is given here.
// classify into active, inactive

Answered cases to consult:
COMPOUND_STRUCTURE: Cc1ccc2nc3c(ccc4ccccc43)c(C)c2c1
QUALITATIVE_LABEL: inactive

COMPOUND_STRUCTURE: CN(C)c1ccc(N=Nc2ccccc2)cc1
QUALITATIVE_LABEL: inactive

COMPOUND_STRUCTURE: CCOS(C)(=O)=O
QUALITATIVE_LABEL: inactive

COMPOUND_STRUCTURE: Nc1ncn[nH]1
QUALITATIVE_LABEL: inactive

COMPOUND_STRUCTURE: [O-]/[N+](=N\O)c1ccccc1
QUALITATIVE_LABEL: inactive

COMPOUND_STRUCTURE: Nc1ccc(S(=O)(=O)c2ccc(N)cc2)cc1
QUALITATIVE_LABEL: inactive

COMPOUND_STRUCTURE: CNC(=O)ON=CC(C)(C)SC
QUALITATIVE_LABEL: inactive

COMPOUND_STRUCTURE: C1O[C@@H]1[C@@H]1CO1
QUALITATIVE_LABEL: inactive

Would you mind telling me which call this test gave Clc1cccc(-c2ccc(Cl)c(Cl)c2Cl)c1Cl ?
inactive

Would you mind telling me which call this test gave O=C(O)CN(CCN(CC(=O)O)CC(=O)O)CC(=O)O ?
inactive

Would you mind telling me which call this test gave O=CNc1nc(-c2ccc([N+](=O)[O-])o2)cs1 ?
active

Would you mind telling me which call this test gave S=C(NC1CCCCC1)NC1CCCCC1 ?
inactive

Would you mind telling me which call this test gave Nc1ccc(Cc2ccc(N)cc2)cc1 ?
inactive

* * *

- Tested on: CCRIS mutagenicity, Ames/micronucleus/aberration tests
- METHOD: CCRIS mutagenicity studies
- APPLIED_CONDITIONS: Test System: AMES SALMONELLA TYPHIMURIUM; Strain/Indicator: TA100; Metabolic Activation: RAT, LIVER, S-9, AROCLOR 1254
Active and inactive are the calls of the source. The rule behind the calls is not given here.
// classify into 1 (active), 0 (inactive)

Would you mind telling me which call this test gave O=C(O)CC(Cl)C(=O)O (stereo not drawn) ?
0

Would you mind telling me which call this test gave Cc1ccc2n[nH]nc2c1 ?
0

Would you mind telling me which call this test gave O=C1CCc2c1cc(C(F)(F)F)c1c3c(ccc21)[C@H](O)[C@@H](O)C=C3 ?
1

Would you mind telling me which call this test gave CCNc1nc(Cl)nc(NC(C)C)n1 ?
0

Would you mind telling me which call this test gave ClCCl ?
1

Would you mind telling me which call this test gave Cc1cccc2cc3c(cc12)-c1cccc2cccc-3c12 ?
1

Would you mind telling me which call this test gave Cc1cccc2c1cc1c3c(cccc32)-c2ccccc2-1 ?
1

Would you mind telling me which call this test gave CC(=O)Nc1ccc(OCC(O)CNC(C)C)cc1 (stereo not drawn) ?
0

Origin of values: PubChem BioAssay AID1259407
